- assayedSystem: Y78F hTTR mutant (Homo sapiens, UniProt P02766, Y98F)
- methodSummary: turbidimetric test of amyloidogenesis (fibril formation) inhibiting activity in vitro
- Assay type: biochemical
- experimentalContext: RA(%)=(1−A/(A+B))·100, compared with the rate in the absence of inhibitor
- Protocol: The compounds to be tested as inhibitors were dissolved in DMSO at a concentration of 1.5 mM. The working solution was prepared by 1 to 4 dilution of the previous solution in a water/DMSO mixture (2:1). […] The microplate was incubated at 37° C. in the microplate reader provided with thermostatting and stirring. […] The data of absorbance versus time for every well were collected and analysed with the Microsoft Excel program. […]
valueKind: RA (%): % reduction of the rate of aggregation at high inhibitor concentration

// worked examples, RA (%): % reduction of the rate of aggregation at high inhibitor concentration included
• COC(=O)c1cc(-c2ccc(F)cc2F)ccc1O = 24
• COC(=O)c1cc(-c2ccc(F)cc2F)cc(I)c1O = 98
• NC(=O)c1cc(-c2ccc(F)cc2F)cc(I)c1O [Iododiflunisalamide] = 84

P = O=C(O)c1cc(-c2ccc(F)cc2F)ccc1O
Q = NC(=O)c1cc(-c2ccc(F)cc2F)ccc1O [Diflunisal amide]
R = O=C(O)CNC(=O)c1cc(-c2ccc(F)cc2F)ccc1O
I would appreciate it if you could sort these 3 molecules by RA (%): % reduction of the rate of aggregation at high inhibitor concentration, starting from the smallest number. When ranking, write the labels in the order the request describes.
Q, R, P

----------
- assayedSystem: Y78F hTTR mutant (Homo sapiens, UniProt P02766, Y98F)
- methodSummary: turbidimetric test of amyloidogenesis (fibril formation) inhibiting activity in vitro
- Type: biochemical
- experimentalContext: sensitivity of the aggregation process to the inhibitor; higher = greater inhibiting effect
valueKind: Ψ: initial slope of curve v0 versus [I] (UA · hr^−1 · μM^−1)

// worked examples, Ψ: initial slope of curve v0 versus [I] included
* NC(=O)c1cc(-c2ccc(F)cc2F)cc(I)c1O [Iododiflunisalamide] | 0.041
* COC(=O)c1cc(-c2ccc(F)cc2F)cc(I)c1O | 0.027
* NC(=O)c1cc(-c2ccc(F)cc2F)ccc1O [Diflunisal amide] | 0.009
* COC(=O)c1cc(-c2ccc(F)cc2F)ccc1O | 0.011

P = O=C(O)c1cc(-c2ccc(F)cc2F)ccc1O
Q = O=C(O)CNC(=O)c1cc(-c2ccc(F)cc2F)ccc1O
Of the two listed items, which has the higher Ψ: initial slope of curve v0 versus [I]? First: P Second: Q Respond with the label that goes with your answer.
P

----------
- assayedSystem: Y78F hTTR mutant (Homo sapiens, UniProt P02766, Y98F)
- methodSummary: turbidimetric test of amyloidogenesis (fibril formation) inhibiting activity in vitro
- experimentalContext: inhibitor concentration at which the aggregation was half that in the absence of inhibitor; 0 to 40 μM inhibitor, 37° C., acid-induced (dilution buffer pH 4.2)
valueKind: IC50 (µM)

* NC(=O)c1cc(-c2ccc(F)cc2F)cc(I)c1O [Iododiflunisalamide] | 11.7
* COC(=O)c1cc(-c2ccc(F)cc2F)cc(I)c1O [Iododiflunisalmethyl ester] | 16.7

----------
- assayedSystem: Y78F hTTR mutant (Homo sapiens, UniProt P02766, Y98F)
- methodSummary: turbidimetric test of amyloidogenesis (fibril formation) inhibiting activity in vitro
- experimentalContext: inhibitor concentration at which the aggregation was half that in the absence of inhibitor; 0 to 40 μM inhibitor, 37° C., acid-induced (dilution buffer pH 4.2)
pIC50: −log10 of the molar value.
valueKind: pIC50

- NC(=O)c1cc(-c2ccc(F)cc2F)ccc1O [Diflunisal amide]: < 4.00
- O=C(O)CNC(=O)c1cc(-c2ccc(F)cc2F)ccc1O: < 4.00

We next turn to a different compound, shown below.
Recorded pIC50 for COC(=O)c1cc(-c2ccc(F)cc2F)ccc1O with Y78F hTTR mutant (Homo sapiens, UniProt P02766, Y98F), please?
< 4.00
